# Target system: T1, Soluble IGF-1R (R&D Systems, Cat. # 391-GR/CF); recombinant human IGF-1R (human, UniProt P08069 31-935)
# T1 construct: extracellular domain; Eu3+-labelled in the TR-FRET assays; also called sIGF-1R; rhIGF-1R
# Assay overview: phage ELISA, vs IR
Positions of bridges follow the written chain, without caps; N, C: chain ends. No end group written: not given here.
Observed property: IGF-1R/IR Comparison (ratio)
Write it as a number; the unit ratio goes unstated.

// worked examples, IGF-1R/IR Comparison included
INSERT INTO assay_data (binder, observed_property, unit_label, test_result) VALUES
  ('GFREGNFYEWFQAQVT [E4Da-4-H2-IR]', 'IGF-1R/IR Comparison', 'ratio', 4.1),
  ('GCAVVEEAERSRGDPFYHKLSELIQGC (disulfide 2-27 (inferred)) [B6Hα-3-E7-IR]', 'IGF-1R/IR Comparison', 'ratio', 4.3),
  ('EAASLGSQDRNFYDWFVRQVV [A6S-2-D11-IR]', 'IGF-1R/IR Comparison', 'ratio', 2.8);

IN: Endpoint output: IGF-1R/IR Comparison of GFREGSFYDWFQAQVT [E4Dα-2-D11-IR] . Value?
OUT: 3.4

IN: Endpoint output: IGF-1R/IR Comparison of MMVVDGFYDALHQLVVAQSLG [20E2A-3-D10-IGFR] . Value?
OUT: 3.9

IN: Endpoint output: IGF-1R/IR Comparison of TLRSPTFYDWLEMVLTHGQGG [20E22-1-A8-IGFR] . Value?
OUT: 5
